test system: Plasmodium falciparum; experiment: Screen against P. falciparum Asexual Blood Stage (ABS), at 5uM; assay type: functional, Dd2; conditions: tested at 5 uM
Among all 65,000 compounds or so, about 2,100 (3.2%) showed an effect of 50% or more. The median lay at about -52%. Shown is part of a subset that was picked to be rich in strong results.
API: label(entry) gives Met if the entry's INHIBITION is strictly smaller than 70%; on equality or larger values it gives Not met.

molecule: CCN1C[C@@H]2[C@@H](OC)CCN(C(=O)Cc3ccsc3)[C@@H]2C1
measurement_target: Plasmodium falciparum
class: Met
//
molecule: O=S(=O)(NCC(c1ccsc1)N1CCCCCC1)c1cccs1 (stereo unspecified)
measurement_target: Plasmodium falciparum
class: Not met
//
molecule: CO[C@H]1CCN(C(=O)Cc2ccsc2)[C@@H]2CN(CC3CC3)C[C@H]12
measurement_target: Plasmodium falciparum
class: Met
//
molecule: CN1Cc2ccccc2NC(=O)C12CCNC2 (stereo unspecified)
measurement_target: Plasmodium falciparum
class: Met
//
molecule: CCN1C[C@H]2[C@@H](C1)N(C(=O)Cc1ccsc1)CC[C@H]2OC
measurement_target: Plasmodium falciparum
class: Met
//
molecule: CCC(C)(C)n1nnnc1C(c1cccs1)N1CCc2ccccc2C1 (stereo unspecified)
measurement_target: Plasmodium falciparum
class: Not met
